- assayed.system: T1, caspase-3 (UniProt P42574 29-277, limits assumed)
- T1 sequence (looked up): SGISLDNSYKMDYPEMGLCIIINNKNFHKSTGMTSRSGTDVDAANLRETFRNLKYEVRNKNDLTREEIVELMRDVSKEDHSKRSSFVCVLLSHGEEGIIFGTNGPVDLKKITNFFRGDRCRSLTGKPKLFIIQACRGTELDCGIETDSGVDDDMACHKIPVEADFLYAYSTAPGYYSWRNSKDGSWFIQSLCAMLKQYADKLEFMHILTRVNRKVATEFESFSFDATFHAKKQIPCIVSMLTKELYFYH
- protocol.summary: cell-based or functional assay
Numbered stars: 1 amine (or outer) side, 2 acyl side, 3 side chain; on linkers, the order of the positions; unused ones are H or OH. Square brackets hold non-standard residues; d marks the D form. Ends that are not written are not given here. * marks the point of attachment. AAsp = aza-Asp, O=C(N(CC(=O)[*:3])N[*:1])[*:2]; azaAsp = O=C(N(CC(=O)[*:3])N[*:1])[*:2]; PhPr = N-terminal cap as named (PhPr); Hydrocinnamoyl = O=C(CCc1ccccc1)*; Cbz = O=C(OCc1ccccc1)*; NHBn = c1ccc(CN*)cc1
recorded.endpoint: k2 (M⁻¹ s⁻¹)
One number for each entry, in M⁻¹ s⁻¹.

Would you please look over these solved cases?
binder	recorded.value
Cbz-DEVD (not fully specified (residue 4, C-terminus); printed as Cbz-Asp-Glu-Val-AAsp-(2R, 3R)-EP-COOEt) [Cbz-Asp-Glu-Val-AAsp-(2R, 3R)-EP-COOEt]	464000
Cbz-Glu-Val-[azaAsp]-{(R,R)‑EP‑CO-Phe-NH2} [Cbz-Glu-Val-AAsp-(R,R)-EP-CO-Phe-NH2]	470

Dear reader, for each entry below, please note its k2.
1. Cbz-Val-[AAsp]-{(trans)‑EP‑Ph‑4‑Cl} [Cbz-Val-AAsp-(trans)-EP-Ph-4-Cl]
2. Hydrocinnamoyl-Val-Ala-[AAsp]-{(S,S)‑EP‑CONHCH2Ph} [PhPr-Val-Ala-AAsp-(S,S)-EP-CONHCH2Ph]
3. PhPr-Val-Ala-[AAsp]-{(S,S)‑EP‑CO-Ala-NHBn} [PhPr-Val-Ala-AAsp-(S,S)-EP-CO-Ala-NHCH2Ph]
4. Cbz-Glu-Val-[azaAsp]-{(2S,3S)‑EP‑COOEt} [Cbz-Glu-Val-AAsp-(2S,3S)-EP-COOEt]

Found:
[145, 1610, 260, 50500]

Provenance of the data: patent US20040048327A1
